Reported IC50 values are given for each entry in this list.
- measuredTarget: KRas-mediated phosphorylation of ERK in A549 cells (Homo sapiens, UniProt P01116, G12S)
- Construct: pERK HTRF read-out
- Sequence (P01116 1-188 isoform P01116-2 G12S): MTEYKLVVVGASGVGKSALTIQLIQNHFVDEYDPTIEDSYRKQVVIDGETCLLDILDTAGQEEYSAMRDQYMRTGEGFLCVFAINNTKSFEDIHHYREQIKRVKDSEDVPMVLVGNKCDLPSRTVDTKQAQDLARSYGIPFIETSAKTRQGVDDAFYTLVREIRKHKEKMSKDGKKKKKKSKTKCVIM
- assayExplanation: Inhibition of KRas-mediated phosphorylation of ERK (HTRF), A549 cells
- Format: cell-based
- condition: HTRF pERK, 3 h incubation
readoutKind: IC50 (nM)

{"molecule": "CN(CCN(C)c1nc(OC[C@@]23CCCN2C[C@H](F)C3)nc2c(F)c(-c3ccc(F)c4sc(N)c(C#N)c34)c(Cl)cc12)C(=O)n1ccnn1 (single isomer, unassigned) [Example 203]", "readoutKind": "IC50", "sign": "=", "observedResult": 195}
{"molecule": "CC(=O)N(C)C(=O)C1CCCN(c2nc(OC[C@@]34CCCN3C[C@H](F)C4)nc3c(F)c(-c4ccc(F)c5sc(N)c(C#N)c45)c(Cl)cc23)CC1 (some centres unmarked) [Example 255]", "readoutKind": "IC50", "sign": "=", "observedResult": 28}
{"molecule": "CCc1c(F)ccc2cc(O)cc(-c3ncc4c(N5CCC(C(=O)N(C)c6ccccn6)CC5)nc(OC[C@@]56CCCN5C[C@H](F)C6)nc4c3F)c12 [Example 62]", "readoutKind": "IC50", "sign": "=", "observedResult": 7060}
{"molecule": "Cc1ccn(C(=O)C2CCCN(c3nc(OCC4(CN(C)C)CC4)nc4c(F)c(-c5ccc(F)c6sc(N)c(C#N)c56)c(Cl)cc34)CC2)n1 (centres unmarked) [Example 227]", "readoutKind": "IC50", "sign": "=", "observedResult": 46}
{"molecule": "CC(=O)N(C)C(=O)[C@H]1C[C@@H]2CN(c3nc(OC[C@@]45CCCN4C[C@H](F)C5)nc4c(F)c(-c5ccc(F)c6sc(N)c(C#N)c56)c(Cl)cc34)C[C@@H]2C1 (atropisomer, axis not shown; (aR)) [Example 236]", "readoutKind": "IC50", "sign": "=", "observedResult": 104}
{"molecule": "CCc1c(F)ccc2cc(O)cc(-c3ncc4c(N5C[C@H]6C[C@@H](C5)[C@H](C(=O)n5ccc(C)n5)C6)nc(OC[C@@]56CCCN5C[C@H](F)C6)nc4c3F)c12 [Example 100]", "readoutKind": "IC50", "sign": ">", "observedResult": 10000}
{"molecule": "CCc1c(F)ccc2cc(O)cc(-c3ncc4c(N5CCCC(C(=O)n6ccc(C)n6)CC5)nc(OC[C@@H]5CCCN5C)nc4c3F)c12 (some centres unmarked) [Example 168]", "readoutKind": "IC50", "sign": "=", "observedResult": 245}
{"molecule": "CCc1c(F)ccc2cc(O)cc(-c3ncc4c(N5CCC(C(=O)n6cc(N(C)C)cn6)CC5)nc(OC[C@@]56CCCN5C[C@H](F)C6)nc4c3F)c12 [Example 64]", "readoutKind": "IC50", "sign": "=", "observedResult": 119}
{"molecule": "CCc1cc(O)cc2cccc(-c3c(Cl)cc4c(N5CCCC(C(=O)n6ccc(C)n6)CC5)nc(OC[C@@]56CCCN5C[C@H](F)C6)nc4c3F)c12 (some centres unmarked) [Example 264]", "readoutKind": "IC50", "sign": "=", "observedResult": 138}
{"molecule": "N#Cc1c(N)sc2c(F)ccc(-c3c(Cl)cc4c(N5CCC(C(=O)Oc6cccc(F)c6)CC5)nc(OC[C@@]56CCCN5C[C@H](F)C6)nc4c3F)c12 [Example 302]", "readoutKind": "IC50", "sign": "=", "observedResult": 79}
{"molecule": "CCc1c(F)ccc2cc(O)cc(-c3ncc4c(N(C)CCC(=O)n5ccc(C)n5)nc(OC[C@@]56CCCN5C[C@H](F)C6)nc4c3F)c12 [Example 121]", "readoutKind": "IC50", "sign": "=", "observedResult": 243}

====

- measuredTarget: KRas WT (Homo sapiens)
- Construct: Biotinylated KRas (corresponding to amino acids 1-169, produced at Accelegan Inc.); biotin (biotinylated); purchased Accelegan Inc
- Sequence (P01116 1-169 isoform P01116-2): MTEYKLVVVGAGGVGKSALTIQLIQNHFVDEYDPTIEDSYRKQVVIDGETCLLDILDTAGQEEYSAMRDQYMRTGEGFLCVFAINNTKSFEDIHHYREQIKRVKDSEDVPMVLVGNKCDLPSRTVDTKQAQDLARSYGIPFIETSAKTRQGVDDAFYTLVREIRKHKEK
- assayExplanation: KRas binding assay, TR-FRET displacement of Cy5 labelled tracer
- condition: 60-minute incubation at room temperature, 1% DMSO, pH 7.5
readoutKind: IC50 (nM)

{"compound": "CCc1c(F)ccc2cc(O)cc(-c3ncc4c(N5CCC(COC)(C(=O)n6ccc(C)n6)C5)nc(OC[C@@]56CCCN5C[C@H](F)C6)nc4c3F)c12 (some centres unmarked)", "valueUnit": "nM", "sign": "=", "observedResult": 1080}
{"compound": "Cc1ccn(C(=O)C2CCCN(c3nc(OCC4(CN(C)C)CC4)nc4c(F)c(-c5ccc(F)c6sc(N)c(C#N)c56)c(Cl)cc34)CC2)n1 (centres unmarked)", "valueUnit": "nM", "sign": "=", "observedResult": 93}
{"compound": "O=C(Oc1ccc(C(F)(F)F)cc1)C1CCN(c2nc(OCC34CCCN3CCC4)nc3c(F)c(-c4cccc5cccc(F)c45)ncc23)CC1", "valueUnit": "nM", "sign": ">", "observedResult": 100000}
{"compound": "Cc1ccn(C(=O)CCCNc2cc(O[C@@H](C)[C@@H]3CCCN3C)nc(-c3noc([C@]4(C)CCCc5sc(N)c(C#N)c54)n3)n2)n1", "valueUnit": "nM", "sign": "=", "observedResult": 19}
{"compound": "CON(C)C(=O)CCCN(C)c1nc(OC[C@@]23CCCN2C[C@H](F)C3)nc2c(F)c(-c3ccc(F)c4sc(N)c(C#N)c34)c(Cl)cc12", "valueUnit": "nM", "sign": "=", "observedResult": 11}
{"compound": "N#Cc1c(N)sc2c(F)ccc(-c3c(Cl)cc4c(N5CCC(C(=O)Oc6cccnc6)CC5)nc(OC[C@@]56CCCN5C[C@H](F)C6)nc4c3F)c12", "valueUnit": "nM", "sign": "=", "observedResult": 30}
{"compound": "CCc1c(F)ccc2cc(O)cc(-c3ncc4c(N(C)CCC(C)C(=O)N(C)C(C)=O)nc(OC[C@@]56CCCN5C[C@H](F)C6)nc4c3F)c12 (some centres unmarked)", "valueUnit": "nM", "sign": "=", "observedResult": 77}
{"compound": "CN(CCNC(=O)n1cncn1)c1nc(OC[C@@]23CCCN2C[C@H](F)C3)nc2c(F)c(-c3ccc(F)c4sc(N)c(C#N)c34)c(Cl)cc12", "valueUnit": "nM", "sign": "=", "observedResult": 13}
{"compound": "CCc1c(F)ccc2cc(O)cc(-c3ncc4c(N5C[C@H]6C[C@@H](C5)[C@H](C(=O)n5ccc(C)n5)C6)nc(OC[C@@]56CCCN5C[C@H](F)C6)nc4c3F)c12", "valueUnit": "nM", "sign": "=", "observedResult": 7690}
{"compound": "O=C(Oc1ccc(F)c(F)c1)C1CCN(c2nc(OCC34CCCN3CCC4)nc3c(F)c(-c4cccc5cccc(F)c45)ncc23)CC1", "valueUnit": "nM", "sign": ">", "observedResult": 100000}
{"compound": "COC(=O)[C@@H]1[C@@H]2CC[C@H]1CN(c1nc(OCC34CCCN3CCC4)nc3c(F)c(-c4cccc5cccc(F)c45)ncc13)C2", "valueUnit": "nM", "sign": "=", "observedResult": 2800}
{"compound": "CCc1c(F)ccc2cc(O)cc(-c3ncc4c(NCC5CC(C(=O)N(C)C(C)=O)C5)nc(OC[C@@]56CCCN5C[C@H](F)C6)nc4c3F)c12 (some centres unmarked)", "valueUnit": "nM", "sign": "=", "observedResult": 9}
{"compound": "O=C(Oc1ccccc1)C1CCCN(c2nc(OCC34CCCN3CCC4)nc3c(F)c(-c4cccc5cccc(F)c45)ncc23)C1 (centres unmarked)", "valueUnit": "nM", "sign": "=", "observedResult": 25400}
{"compound": "Cc1ccn(C(=O)C23CCC(CN(c4nc(OC[C@@]56CCCN5C[C@H](F)C6)nc5c(F)c(-c6ccc(F)c7sc(N)c(C#N)c67)c(Cl)cc45)C2)C3)n1 (some centres unmarked)", "valueUnit": "nM", "sign": "=", "observedResult": 5}
{"compound": "CCc1c(F)ccc2cc(O)cc(-c3ncc4c(N5CCN(C(=O)n6ccnc6)CC5)nc(OC[C@@]56CCCN5C[C@H](F)C6)nc4c3F)c12", "valueUnit": "nM", "sign": "=", "observedResult": 2}
{"compound": "CCc1c(F)ccc2cc(O)cc(-c3ncc4c(N5CCCC(C(=O)N(C)C(C)=O)CC5)nc(OC[C@@]56CCCN5C[C@H](F)C6)nc4c3F)c12 (some centres unmarked)", "valueUnit": "nM", "sign": "=", "observedResult": 492}
{"compound": "CN(CCN(C)c1nc(OC[C@@]23CCCN2C[C@H](F)C3)nc2c(F)c(-c3ccc(F)c4sc(N)c(C#N)c34)c(Cl)cc12)C(=O)n1ccnn1 (single isomer, unassigned)", "valueUnit": "nM", "sign": "=", "observedResult": 4}
{"compound": "CCc1c(F)ccc2cc(O)cc(-c3ncc4c(N5CCC(COC)(C(=O)n6ccc(C)n6)CC5)nc(OC[C@@]56CCCN5C[C@H](F)C6)nc4c3F)c12", "valueUnit": "nM", "sign": "=", "observedResult": 8490}
{"compound": "Cc1ccn(C(=O)CCCN(C)c2cc(O[C@@H](C)[C@@H]3CCCN3C)nc(-c3cc([C@]4(C)CCCc5sc(N)c(C#N)c54)sn3)n2)n1", "valueUnit": "nM", "sign": "=", "observedResult": 346}
{"compound": "CCc1c(F)ccc2cc(O)cc(-c3ncc4c(N(C)CCN(C)C(=O)n5nccn5)nc(OC[C@@]56CCCN5C[C@H](F)C6)nc4c3F)c12 (single isomer, unassigned)", "valueUnit": "nM", "sign": "=", "observedResult": 238}
{"compound": "CN(C(=O)C1CCN(c2nc(OC[C@@]34CCCN3C[C@H](F)C4)nc3c(F)c(-c4ccc(F)c5sc(N)c(C#N)c45)c(Cl)cc23)CC1)c1cccnc1", "valueUnit": "nM", "sign": "=", "observedResult": 5}
{"compound": "CCc1c(F)ccc2cc(O)cc(-c3ncc4c(N5C[C@@H](C)N(C(=O)n6ccc(C)n6)[C@H](C)C5)nc(OC[C@@]56CCCN5C[C@H](F)C6)nc4c3F)c12", "valueUnit": "nM", "sign": "=", "observedResult": 2320}
{"compound": "CCc1c(F)ccc2cc(O)cc(-c3ncc4c(N5C[C@@H]6[C@H](C5)[C@@H]6C(=O)n5ccc(C)n5)nc(OC[C@@]56CCCN5C[C@H](F)C6)nc4c3F)c12", "valueUnit": "nM", "sign": "=", "observedResult": 1180}
